Procedure Summary: Solubility in PBS
Type: physicochemical
Known Solubility of a selection of compounds
Readout Type: Solubility (µM)

INSERT INTO assay_data (compound, readout_type, reported_result) VALUES
  ('CC[C@H](C)[C@@H]1NC(=O)[C@H](CC(=O)O)NC(=O)[C@]2(CC=CCCCC3(CCCC=CCCCCCC[C@@](C)(C(=O)N[C@@H](Cc4ccccc4)C(=O)N[C@@H](Cc4csc5ccccc45)C(N)=O)NC(=O)[C@H](CCC(N)=O)NC(=O)[C@H](Cc4ccccc4)NC(=O)[C@H](C)NC(=O)[C@H](C)NC(=O)[C@H](CCC(=O)O)NC(=O)[C@H](CC(=O)O)NC3=O)NC1=O)CCCN2C(C)=O (stereo partly drawn) [I-409]', 'Solubility', 48),
  ('CC(=O)N1CCC[C@]12CC=CCCCC1(CCCC=CCCCCCC[C@@](C)(C(=O)N[C@@H](Cc3ccccc3)C(=O)N[C@@H](Cc3csc4ccccc34)C(=O)N[C@@H](CCC(N)=O)C(N)=O)NC(=O)[C@H](CC(N)=O)NC(=O)[C@H](Cc3ccccc3)NC(=O)[C@H](C)NC(=O)[C@H](C)NC(=O)[C@H](CCC(=O)O)NC(=O)[C@H](CCNS(C)(=O)=O)NC1=O)NC(=O)[C@H](C)NC(=O)[C@H](CC(=O)O)NC2=O (stereo partly drawn) [I-531]', 'Solubility', 43),
  ('CC(=O)N1CCC[C@]12CC=CCCCC1(CCCC=CCCCOC(=O)N3CC[C@@](C(=O)N[C@@H](Cc4ccsc4)C(=O)N[C@@H](Cc4csc5ccccc45)C(=O)N[C@@H](CCC(N)=O)C(=O)N[C@@H](CCCCNC(=O)C45CC6(C)CC(C)(CC(C)(C6)C4)C5)C(N)=O)(C3)NC(=O)[C@H](CC(N)=O)NC(=O)[C@H](Cc3ccccc3)NC(=O)[C@H](C)NC(=O)[C@H](C)NC(=O)[C@H](CC(=O)O)NC(=O)[C@H](CC(=O)O)NC1=O)NC(=O)[C@H](CC(C)(C)C)NC(=O)[C@H](CC(=O)O)NC2=O (stereo partly drawn)', 'Solubility', 50);

Reference source: patent US20240116985A1
